# EXPERIMENTAL_SYSTEM: T1, human CD3 epsilon (Acro Cat #CDE-H5223) (human, UniProt P07766 23-126)
# T1 construct: Bought recombinant protein; also called rhCD3E
# T1 sequence (P07766 23-126 limits assumed): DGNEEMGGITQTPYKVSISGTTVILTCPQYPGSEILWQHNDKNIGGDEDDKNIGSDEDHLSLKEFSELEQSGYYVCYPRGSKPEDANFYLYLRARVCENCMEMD
# ASSAY_INFO: SPR (Biacore), antibody captured, human CD3 epsilon analyte
QUANTITY: kon (M⁻¹ s⁻¹)
Field: numeric (M⁻¹ s⁻¹). Do not append units.

Inquiry: GET /values?readout=kon&item= 2037-B10_Hc-K31D (antibody, human IgG1, lambda, V domains shown, human IgG1, lambda; also called SRP 2037 K31D; 2037-B10_VH-K31D) VH: EVQLVESGGGLVKPGGSLRLSCAASGFTFNDYAMNWVRQAPGKGLEWVARIRTKYNNYATYYADSVKDRFTISRDDSKNTAYLQMNSLKTEDTAVYYCVRHGNFGNSYISYWAYWGQGTPVTVSS VL: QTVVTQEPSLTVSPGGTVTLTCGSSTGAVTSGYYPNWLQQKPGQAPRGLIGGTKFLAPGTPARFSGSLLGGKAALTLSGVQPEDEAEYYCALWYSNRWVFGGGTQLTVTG
Reply text: 271000
